- Tested on: Haloperidol-Induced Catalepsy
- Experiment: Effect on haloperidol-induced catalepsy
- Format: in vivo, mice
- Condition: of five mice, catalepsy score not more than 4 points; 10 mg/kg orally
# Lookup of reported Number of the Animals Showing Remission keyed by entry
Lab note: record the figure alone, no unit after it.

Previously resolved entries follow.
| Molecule | Value type | Reading |
| --- | --- | --- |
| CCn1c(=O)c2c(nc(/C=C/c3ccc(F)c(F)c3)n2C)n(CC)c1=O | Number of the Animals Showing Remission | 5 |
| CCn1c(=O)c2c(nc(/C=C/c3ccc(OCc4ccccc4)cc3)n2C)n(CC)c1=O | Number of the Animals Showing Remission | 3 |
| CCn1c(=O)c2c(nc(/C=C/c3ccc(OC)cc3OC)n2C)n(CC)c1=O | Number of the Animals Showing Remission | 5 |
| CCn1c(=O)c2c(nc(/C=C/c3ccc(O)c(O)c3)n2C)n(CC)c1=O | Number of the Animals Showing Remission | 3 |
| CCn1c(=O)c2c(nc(/C=C/c3ccc(OC)c(C)c3C)n2C)n(CC)c1=O | Number of the Animals Showing Remission | 5 |

Request: Which Number of the Animals Showing Remission is listed for CCn1c(=O)c2c(nc(/C=C/c3ccc(Br)cc3)n2C)n(CC)c1=O ?
Response: 3

Request: Same lookup for CCn1c(=O)c2c(nc(/C=C/c3ccc(C)cc3)n2C)n(CC)c1=O , please.
Response: 3

* * *

- Study system: A₁ receptor (Cavia porcellus)
- Construct: from tissue; host or cells: guinea pig cerebrum membrane preparation
- Sequence (P47745 whole entry): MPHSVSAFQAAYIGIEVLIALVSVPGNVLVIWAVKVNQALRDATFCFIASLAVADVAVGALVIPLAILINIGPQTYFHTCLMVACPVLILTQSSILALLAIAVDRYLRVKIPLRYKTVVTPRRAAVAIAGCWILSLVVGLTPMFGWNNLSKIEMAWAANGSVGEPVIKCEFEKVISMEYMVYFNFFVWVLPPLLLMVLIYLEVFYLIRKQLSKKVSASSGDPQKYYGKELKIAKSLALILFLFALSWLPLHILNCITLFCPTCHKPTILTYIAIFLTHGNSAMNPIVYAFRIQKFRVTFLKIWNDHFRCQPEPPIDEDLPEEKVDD
- Experiment: Adenosine A₁ receptor binding test (³H-CHA binding)
- Set-up: species or system guinea pig
- Condition: 10⁻⁵M, guinea pig cerebrum
# Lookup of reported inhibition at 10 µM keyed by entry
Write the quantity with the unit trailing the number.

| Molecule | Value type | Reading |
| --- | --- | --- |
| CCn1c(=O)c2[nH]c(/C=C/c3ccc4c(c3)OCO4)nc2n(CC)c1=O | inhibition at 10 µM | 25% |
| CCn1c(=O)c2[nH]c(/C=C/c3ccc(OC)c(C)c3OC)nc2n(CC)c1=O | inhibition at 10 µM | 59% |
| COc1ccc(/C=C/c2nc3c(c(=O)n(C)c(=O)n3C)n2C)c(OC)c1OC [Compound 20, (E)-8-(2,3,4-Trimethoxystyryl)caffeine] | inhibition at 10 µM | 11% |
| COc1ccc(/C=C/c2nc3c(c(=O)n(C)c(=O)n3C)n2C)c(C)c1C | inhibition at 10 µM | 1% |
| CCn1c(=O)c2[nH]c(/C=C/c3ccc(OC)c(C)c3C)nc2n(CC)c1=O | inhibition at 10 µM | 14% |
| CCn1c(=O)c2[nH]c(/C=C/c3ccc(OC)c(OC)c3OC)nc2n(CC)c1=O | inhibition at 10 µM | 34% |

Request: Which inhibition at 10 µM is listed for CCn1c(=O)c2[nH]c(/C=C/c3ccc4c(c3)OCCO4)nc2n(CC)c1=O ?
Response: 23%

* * *

- Study system: A₂ receptor (Rattus norvegicus, UniProt P30543)
- Construct: from tissue; host or cells: rat corpus striatum membrane preparation
- Sequence (P30543 whole entry): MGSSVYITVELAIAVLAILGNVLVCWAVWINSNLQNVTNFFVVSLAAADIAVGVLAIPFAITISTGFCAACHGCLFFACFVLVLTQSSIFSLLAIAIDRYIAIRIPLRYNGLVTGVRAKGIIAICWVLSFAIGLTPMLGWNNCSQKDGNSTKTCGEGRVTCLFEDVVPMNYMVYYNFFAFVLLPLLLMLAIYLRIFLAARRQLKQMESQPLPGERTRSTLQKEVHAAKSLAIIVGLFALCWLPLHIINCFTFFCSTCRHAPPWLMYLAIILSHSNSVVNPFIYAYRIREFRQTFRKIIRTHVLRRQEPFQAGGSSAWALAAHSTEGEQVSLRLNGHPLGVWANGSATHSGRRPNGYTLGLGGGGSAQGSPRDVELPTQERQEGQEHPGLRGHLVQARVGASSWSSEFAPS
- Experiment: Adenosine A₂ receptor binding test (³H-NECA binding)
- Condition: read-out: Inhibition (%) A₂ Receptor
Value type: inhibition at 100 µM (%)
Kindly provide the numeric value in % only, without the unit symbol.

Previously resolved entries follow.
| Compound | inhibition at 100 µM / % |
| --- | --- |
| COc1ccc(/C=C/c2nc3c(c(=O)n(C)c(=O)n3C)n2C)c(OC)c1OC [Compound 20, (E)-8-(2,3,4-Trimethoxystyryl)caffeine] | 88 |
| CCn1c(=O)c2c(nc(/C=C/c3cccc(OC)c3OC)n2C)n(CC)c1=O | 90 |

Continue with the compound presented below.
Request: Which inhibition at 100 µM is listed for COc1ccc(/C=C/c2nc3c([nH]2)c(=O)n(C)c(=O)n3C)c(OC)c1OC ?
Response: 91
